Source of measurements: patent US9289478B2

test-summary: HPLC-assay for stability of peptides in lyophilised formulation on storage for 3 months (Example 4)
Format: physicochemical
condition-info: -20° C. +/- 5° C.; 1 month
Below, each entry is listed with its recorded stability of peptides in formulation, 1 M.

Look over these answered cases.
INSERT INTO assay_data (sequence_content, observed_measurement) VALUES
  ('ALWAWPSEL (listed as Homo sapiens) [BCA-002, Brevican tumour-associated peptide]', '99.17 % of Initial'),
  ('KVFAGIPTV (listed as Homo sapiens) [PTP-005, Protein tyrosine phosphatase, receptor-type, Z polypeptide 1 peptide]', '98.99 % of Initial'),
  ('NLDTLMTYV (listed as Homo sapiens) [NLGN4X-001, Neuroligin 4, X-linked peptide]', '99.05 % of Initial');

Please give the documented stability of peptides in formulation, 1 M of LTFGDVVAV (listed as Homo sapiens) [FABP7-001]
99.09 % of Initial

Please give the documented stability of peptides in formulation, 1 M of AMTQLLAGV (listed as Homo sapiens) [TNC-001, Tenascin C peptide]
99.01 % of Initial

Please give the documented stability of peptides in formulation, 1 M of TLGEFLKLDRERAKN (listed as Homo sapiens) [BIR-002, Baculoviral IAP repeat-containing 5 (survivin) peptide]
98.43 % of Initial

Please give the documented stability of peptides in formulation, 1 M of GLWHHQTEV (listed as Homo sapiens) [NRCAM-001, Neuronal cell adhesion molecule peptide]
99.23 % of Initial

Please give the documented stability of peptides in formulation, 1 M of KIQEILTQV (listed as Homo sapiens) [IGF2BP3-001]
99.10 % of Initial

Please give the documented stability of peptides in formulation, 1 M of AIIDGVESV (listed as Homo sapiens) [PTP-003, Protein tyrosine phosphatase, receptor-type, Z polypeptide 1 peptide]
99.11 % of Initial

Please give the documented stability of peptides in formulation, 1 M of TMLARLASA (listed as Homo sapiens) [CSP-001, Chondroitin sulfate proteoglycan 4 peptide]
98.99 % of Initial

* * *

Below, each entry is listed with its recorded in-use stability, peptide by HPLC-assay.
test-summary: HPLC-assay for in-use stability after reconstitution with 4.2% sodium hydrogen carbonate solution (Example 2, peptides SEQ ID NO 1-10)
Format: physicochemical
condition-info: no excipients; 1 h after reconstitution
Write the number in % without appending the unit.

INSERT INTO measurements (sequence_content, units_of_measure, observed_measurement) VALUES
  ('SQDDIKGIQKLYGKRS (listed as Homo sapiens) [MMP-001, Matrix metalloproteinase 7 tumour-associated peptide]', '%', 98.6),
  ('SVASTITGV (listed as Homo sapiens) [ADF-001, Adipophilin tumour-associated peptide]', '%', 102.4),
  ('ALFDGDPHL (listed as Homo sapiens) [K67-001, KIAA0367 tumour-associated peptide]', '%', 100.8);

Please give the documented in-use stability, peptide by HPLC-assay of LLGATCMFV (listed as Homo sapiens) [CCN-001, Cyclin D1 tumour-associated peptide]
82.8
